Each recorded value in this set is attributed to ChEMBL document CHEMBL1136938.

# target.desc: Sodium-dependent serotonin transporter (Homo sapiens)
# Sequence (P31645 whole entry): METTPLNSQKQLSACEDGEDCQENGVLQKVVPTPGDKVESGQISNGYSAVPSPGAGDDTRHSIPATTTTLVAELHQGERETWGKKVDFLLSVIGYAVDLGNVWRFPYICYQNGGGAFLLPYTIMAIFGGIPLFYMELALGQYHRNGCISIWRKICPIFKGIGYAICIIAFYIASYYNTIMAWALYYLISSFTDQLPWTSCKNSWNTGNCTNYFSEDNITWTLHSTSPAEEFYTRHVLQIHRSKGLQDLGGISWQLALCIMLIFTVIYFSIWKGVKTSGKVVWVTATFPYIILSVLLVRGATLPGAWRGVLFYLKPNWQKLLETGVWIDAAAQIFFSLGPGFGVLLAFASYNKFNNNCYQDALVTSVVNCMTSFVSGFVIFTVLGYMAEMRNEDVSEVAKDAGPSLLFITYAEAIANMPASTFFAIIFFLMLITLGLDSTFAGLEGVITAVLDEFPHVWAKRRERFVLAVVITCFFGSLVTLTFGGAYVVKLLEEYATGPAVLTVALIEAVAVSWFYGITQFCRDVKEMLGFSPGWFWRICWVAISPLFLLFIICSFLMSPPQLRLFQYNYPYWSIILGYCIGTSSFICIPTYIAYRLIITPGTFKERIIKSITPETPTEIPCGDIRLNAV
# experiment: Displacement of [125I]RTI55 from human SERT expressed in HEK293 cells
# Assay type: cell-based
pKi: −log10 of the molar value.
assay.metric: pKi

Examples from the recorded data:
INSERT INTO results (structure_string, readout_value) VALUES
  ('Cc1cccc(NC(=O)c2ccc(-c3ccccc3)c(C#N)c2)n1', '< 5.22'),
  ('Cc1nc(C#Cc2cc(F)cc(-c3cccnc3)c2)cs1', '< 5.22'),
  ('Cc1nc(C#Cc2ccc(-c3cccnc3)c(F)c2)cs1', '< 5.22');

Query molecule follows.
The recorded pKi with Sodium-dependent serotonin transporter (Homo sapiens) for Cc1cccc(NC(=O)c2ccc(-c3cccc(F)c3)c(C#N)c2)n1 was < 5.22
